Assay system: c-Src (Homo sapiens, UniProt P12931)
Sequence (P12931 270-523 limits assumed): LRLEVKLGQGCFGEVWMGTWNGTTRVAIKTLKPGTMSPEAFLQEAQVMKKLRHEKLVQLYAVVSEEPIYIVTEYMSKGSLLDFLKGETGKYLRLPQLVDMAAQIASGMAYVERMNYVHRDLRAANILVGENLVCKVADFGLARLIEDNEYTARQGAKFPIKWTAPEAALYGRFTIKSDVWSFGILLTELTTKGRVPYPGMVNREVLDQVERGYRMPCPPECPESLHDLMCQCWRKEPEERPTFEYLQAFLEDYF
Assay overview: c-Src kinase activity assay (Transcreener ADP fluorescence intensity)
Type: biochemical
Set-up: 0.7 nM of His6-Src kinase domain in kinase buffer; His6
Assay context: in vitro Src kinase inhibition, His6-Src kinase domain, triplicate
Property measured: IC50 (µM)

> print(dat)
                                   molecule                          assay.system  property.measured  recorded.number
1  CC(=O)C(=Cc1ccc(N(C)C)cc1)n1nc(-c2ccccc2)c2c(N)ncnc21 [Compound 7]  c-Src (Homo sapiens, UniProt P12931)               IC50             36.9

a = COc1ccc(C=C(C(C)=O)n2nc(-c3ccccc3)c3c(N)ncnc32)cc1 [Compound 6]
b = CC(=O)C(=Cc1ccc(C)cc1)n1nc(-c2ccccc2)c2c(N)ncnc21 [Compound 3]
c = CC(=O)/C(=C\c1ccc(-c2ccccc2)cc1)n1nc(-c2ccccc2)c2c(N)ncnc21 [Compound 5]
Exam item: Parameters: sort_field (IC50), sort_dir (desc). # respond with the labels, arranged in the requested order
Marked response: c, b, a

----------
System: HT-29 cells
Assay overview: Cell proliferation assay (CellTiter 96)
Assay type: cell-based, human
Assay context: HT-29, 50 µM, 24–96 h
Text: Human leukemia cell line CCRF-CEM (ATCC no. CCL-119), human ovarian adenocarcinoma cell line SK-OV-3 (ATCC no. HTB-77), human breast carcinoma cell line MDA-MB-231 (ATCC no.HTB-26), and human colon adenocarcinoma cell line HT-29 (ATCC no. HTB-38) were obtained from American Type Culture Collection. […]
Property measured: reducing the cell proliferation (in words)

> print(dat)
                                   compound    result
1  CC(=O)C(=Cc1cccc([N+](=O)[O-])c1)n1nc(-c2ccccc2)c2c(N)ncnc21 [Compound 9]  inactive
2  CC(=O)Cn1nc(-c2ccccc2)c2c(N)ncnc21 [Compound 2]  inactive
3  CC(=O)C(=Cc1ccc(N(C)C)cc1)n1nc(-c2ccccc2)c2c(N)ncnc21 [Compound 7]  inactive
4  CC(=O)C(=Cc1ccccc1Cl)n1nc(-c2ccccc2)c2c(N)ncnc21 [Compound 12]  inactive
